target: KRasG12C (M1-K169, biotinylated on the N-terminus) (Homo sapiens (Human), UniProt P01116, G12C); test: Covalent competition assay: scintillation proximity assay (SPA) quantifying covalent modification of KRASG12C; type: binding; settings: competition with radiolabeled covalent probe (Compound B/Compound A), 2 hours incubation, 10 nM KRasG12C
value_kind: IC50 (nM)
// note: answer is a bare numeric in nM

Input line: Requested read-out: IC50. Entry: C=CC(=O)N1CC2(CC(n3nc(N4CC[C@@H](CN(C)CC(=O)N5CCCC5)CC4(C)C)c(-c4c(Cl)c(Cl)cc5[nH]ncc45)c3C)C2)C1 (single isomer, unassigned) [Example 252b]
Output line: 6

Input line: Note, next up: C=CC(=O)N1CC2(CC(n3nc(N4CCN(C5CCOCC5)C[C@]4(C)C(F)F)c(-c4c(Cl)c(C)cc5[nH]ncc45)c3C)C2)C1 (single isomer, unassigned) [Example 151a]
Output line: 46
